measurement_target: BpSBPMLG (Blautia producta, UniProt A0ABX6JB09)
Sequence (A0ABX6JB09 entry or part of it): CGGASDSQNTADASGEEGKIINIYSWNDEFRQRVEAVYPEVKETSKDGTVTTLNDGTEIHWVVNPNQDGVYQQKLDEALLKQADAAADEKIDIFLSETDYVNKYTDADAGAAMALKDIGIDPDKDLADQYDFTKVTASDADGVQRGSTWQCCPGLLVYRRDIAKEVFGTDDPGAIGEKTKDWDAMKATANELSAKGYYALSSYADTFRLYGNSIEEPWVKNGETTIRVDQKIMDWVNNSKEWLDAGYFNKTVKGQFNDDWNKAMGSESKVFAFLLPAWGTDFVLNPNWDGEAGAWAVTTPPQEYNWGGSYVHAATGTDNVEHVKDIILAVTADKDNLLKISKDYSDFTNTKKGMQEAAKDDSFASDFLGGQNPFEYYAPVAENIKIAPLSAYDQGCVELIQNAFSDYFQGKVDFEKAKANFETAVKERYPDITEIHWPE
test_description: Isothermal titration calorimetry of oligosaccharide binding to BpSBPMLG
Set-up: species or system Blautia producta ATCC 27340
measurement_parameters: ITC at 25 °C, 10 mM sodium phosphate pH 7.0
readout_kind: ΔG^0

[
  {
    "compound": "OC[C@H]1O[C@@H](O[C@H]2[C@H](O)[C@@H](O)[C@H](O[C@H]3[C@H](O)[C@@H](CO)OC(O)[C@@H]3O)O[C@@H]2CO)[C@H](O)[C@@H](O)[C@@H]1O (stereo partly drawn) [G4G3G, Glc-β-1-4-Glc-β-1-3-Glc]",
    "ΔG^0": "-8.18 kcal/mol"
  }
]

Let us examine a further case.
Challenge: Field request: ΔG^0 | item: OC[C@H]1O[C@@H](O[C@H]2[C@H](O)[C@@H](O)[C@H](O[C@H]3[C@H](O)[C@@H](O)[C@H](O[C@H]4[C@H](O)[C@@H](O)C(O)O[C@@H]4CO)O[C@@H]3CO)O[C@@H]2CO)[C@H](O)[C@@H](O)[C@@H]1O (some centres unmarked) [Cellotetraose]
Response given: -8.35 kcal/mol

* * *

measurement_target: BpSBPMLG (Blautia producta)
test_description: Isothermal titration calorimetry of oligosaccharide binding to BpSBPMLG
Parameters: species or system Blautia producta ATCC 27340
measurement_parameters: ITC at 25 °C, 10 mM sodium phosphate pH 7.0
readout_kind: ΔG^0 (kcal/mol)
Hi! Could you send only the number? It should be in kcal/mol, unit omitted.

Field: example entries. Status: answers known.
[
  {
    "compound": "OC[C@H]1O[C@@H](O[C@H]2[C@H](O)[C@@H](O)[C@H](O[C@H]3[C@H](O)[C@@H](O)[C@H](O[C@H]4[C@H](O)[C@@H](CO)OC(O)[C@@H]4O)O[C@@H]3CO)O[C@@H]2CO)[C@H](O)[C@@H](O)[C@@H]1O (stereo partly drawn) [G4G4G3G, Glc-β-1-4-Glc-β-1-4-Glc-β-1-3-Glc]",
    "ΔG^0 [kcal/mol]": -7.22
  },
  {
    "compound": "OC[C@H]1O[C@@H](O[C@H]2[C@H](O)[C@@H](O)[C@H](O[C@H]3[C@H](O)[C@@H](O)C(O)O[C@@H]3CO)O[C@@H]2CO)[C@H](O)[C@@H](O)[C@@H]1O (some centres unmarked) [Cellotriose]",
    "ΔG^0 [kcal/mol]": -7.9
  },
  {
    "compound": "O=C[C@H](O)[C@@H](O)[C@H](O[C@@H]1O[C@H](CO)[C@@H](O)[C@H](O)[C@H]1O)[C@H](O)CO [Cellobiose]",
    "ΔG^0 [kcal/mol]": -6.2
  },
  {
    "compound": "OC[C@H]1O[C@@H](O[C@H]2[C@H](O)[C@@H](CO)OC(O)[C@@H]2O)[C@H](O)[C@@H](O)[C@@H]1O (some centres unmarked) [Laminaribiose]",
    "ΔG^0 [kcal/mol]": -6.35
  }
]

Here's the next entry for you.
Challenge: Query (compound): OC[C@H]1O[C@@H](O[C@@H]2[C@@H](O)[C@H](O[C@H]3[C@H](O)[C@@H](CO)OC(O)[C@@H]3O)O[C@H](CO)[C@H]2O)[C@H](O)[C@@H](O)[C@@H]1O (some centres unmarked) [Laminaritriose] ; field requested: ΔG^0
Response given: -7.46
